These data points were gathered from ChEMBL document CHEMBL2424622.

target: Myosin light chain kinase 2, skeletal/cardiac muscle (Homo sapiens) (UniProt Q9H1R3); assay: Competitive binding affinity to MYLK2 (unknown origin) at 10 uM in presence of ATP relative to control
Sequence (Q9H1R3 whole entry): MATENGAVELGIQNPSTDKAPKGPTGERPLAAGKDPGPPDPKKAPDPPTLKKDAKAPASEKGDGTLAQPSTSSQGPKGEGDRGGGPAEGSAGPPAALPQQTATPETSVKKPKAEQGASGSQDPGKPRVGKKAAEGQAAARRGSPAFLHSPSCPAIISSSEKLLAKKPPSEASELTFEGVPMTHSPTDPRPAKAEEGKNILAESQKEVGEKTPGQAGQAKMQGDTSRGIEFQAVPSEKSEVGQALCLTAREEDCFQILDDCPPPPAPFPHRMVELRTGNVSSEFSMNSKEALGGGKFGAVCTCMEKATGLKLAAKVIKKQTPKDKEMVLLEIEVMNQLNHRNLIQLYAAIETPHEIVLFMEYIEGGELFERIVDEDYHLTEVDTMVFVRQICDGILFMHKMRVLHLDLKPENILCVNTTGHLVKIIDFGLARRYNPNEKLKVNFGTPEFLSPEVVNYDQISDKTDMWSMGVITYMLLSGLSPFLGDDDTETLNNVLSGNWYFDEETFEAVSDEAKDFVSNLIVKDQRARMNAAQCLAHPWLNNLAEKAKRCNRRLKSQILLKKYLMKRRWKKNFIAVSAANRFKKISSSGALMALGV

smiles data	inhibition
O[C@H]1CC[C@H](Nc2nccc(-n3ccc4ccccc43)n2)CC1	< 50%
O[C@H]1CC[C@H](Nc2nccc(-c3n[nH]c4ccccc34)n2)CC1	84%
O[C@H]1CC[C@H](Nc2nccc(-n3ncc4ccccc43)n2)CC1	< 50%
O[C@H]1CC[C@H](Nc2nccc(-n3nnc4ccccc43)n2)CC1	< 50%
N[C@H]1CC[C@H](Nc2nccc(-n3nnc4ccccc43)n2)CC1	73%
O=C([C@H]1CC[C@H](Nc2nccc(-n3nnc4ccccc43)n2)CC1)N1CCOCC1	< 50%
